- Target or test system: Adenosine receptor A2b (Homo sapiens) (UniProt P29275)
- Sequence (P29275 whole entry): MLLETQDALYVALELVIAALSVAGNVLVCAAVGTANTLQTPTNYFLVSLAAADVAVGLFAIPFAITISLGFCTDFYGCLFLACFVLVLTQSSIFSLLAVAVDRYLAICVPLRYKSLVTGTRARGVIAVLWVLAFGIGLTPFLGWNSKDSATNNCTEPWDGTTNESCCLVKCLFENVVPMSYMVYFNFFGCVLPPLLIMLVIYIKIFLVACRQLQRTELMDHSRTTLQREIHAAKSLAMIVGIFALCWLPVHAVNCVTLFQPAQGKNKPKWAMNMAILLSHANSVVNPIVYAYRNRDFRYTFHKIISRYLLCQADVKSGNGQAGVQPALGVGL
- Protocol notes: Displacement of [3H]MRE 2029F20 from human adenosine A2B receptor expressed in CHO cells
- Format: cell-based
- Parameters: concentration or dose not given beside the values
- Reported conditions: concentration not given here
Readout name: inhibition (%)

[
  {
    "Smiles text": "O=C(Nc1ccncc1)Nc1nc2nn(CCCOCc3ccccc3)cc2c2nc(-c3ccco3)nn12",
    "Target or test system": "Adenosine receptor A2b (Homo sapiens) (UniProt P29275)",
    "inhibition / %": 66
  },
  {
    "Smiles text": "O=C(Nc1ccncc1)Nc1nc2nn(CCOCc3ccccc3)cc2c2nc(-c3ccco3)nn12",
    "Target or test system": "Adenosine receptor A2b (Homo sapiens) (UniProt P29275)",
    "inhibition / %": 65
  },
  {
    "Smiles text": "O=C(Nc1ccncc1)Nc1nc2nn(CCO)cc2c2nc(-c3ccco3)nn12",
    "Target or test system": "Adenosine receptor A2b (Homo sapiens) (UniProt P29275)",
    "inhibition / %": 71
  },
  {
    "Smiles text": "O=C(Nc1cccnc1)Nc1nc2nn(CCO)cc2c2nc(-c3ccco3)nn12",
    "Target or test system": "Adenosine receptor A2b (Homo sapiens) (UniProt P29275)",
    "inhibition / %": 99
  },
  {
    "Smiles text": "O=C(Nc1cccnc1)Nc1nc2nn(CCOCc3ccccc3)cc2c2nc(-c3ccco3)nn12",
    "Target or test system": "Adenosine receptor A2b (Homo sapiens) (UniProt P29275)",
    "inhibition / %": 58
  },
  {
    "Smiles text": "O=C(Nc1ccncc1)Nc1nc2nn(CCCO)cc2c2nc(-c3ccco3)nn12",
    "Target or test system": "Adenosine receptor A2b (Homo sapiens) (UniProt P29275)",
    "inhibition / %": 73
  }
]
